system: ACHN renal; experiment: NCI-60 one-dose screen, 48 h; settings: 10 µM unless noted
Compounds without any hit were thinned out: in the full panel of roughly 83,000, 20% have a hit. Activity calls are given as the source filed them. The calls were made as follows: active = growth percent below 10; inactive = the rest.
Labels: active, inactive

{"columns": ["MOLECULE", "TARGET_SYSTEM", "LABEL"],
 "data": [
  ["COc1cc(F)c(/C=C/c2cc(/C=C/c3cc(OC)c(OC)cc3F)n(-c3cc(F)cc(F)c3)n2)cc1OC", "ACHN renal", "inactive"],
  ["Cc1ccc(-c2nc3nc(-c4ccc(Br)cc4)nc(N4CCCNCC4)c3o2)cc1", "ACHN renal", "active"],
  ["O=C(NNc1ccccc1)C1CCCN1 (stereo not drawn)", "ACHN renal", "inactive"],
  ["Cc1cc2nc(C(Cl)Cl)nc(-c3ccc(Cl)cc3)n2n1", "ACHN renal", "active"],
  ["N=C1/C(=C2\\NC3C=CC=CC3S2)C(c2ccc(Cl)cc2)C2C(=O)N(c3ccccc3)C(=S)N12 (stereo not drawn)", "ACHN renal", "inactive"],
  ["COCCOc1cc2ncnc(N3CCN(S(=O)(=O)c4ccccc4Cl)CC3)c2cc1OCCOC", "ACHN renal", "inactive"],
  ["O=[N+]([O-])c1cc(C(F)(F)F)ccc1Sc1ccc(C(F)(F)F)cc1[N+](=O)[O-]", "ACHN renal", "inactive"],
  ["CCOC(=O)C1=C(C)NC(=O)NC1c1c(Cl)n(-c2ccccc2)c2ccccc12 (stereo not drawn)", "ACHN renal", "inactive"],
  ["COc1cc(-c2nc3occn3c2-c2ccnc(NCCCNS(=O)(=O)c3ccc(O)cc3)n2)ccc1F", "ACHN renal", "inactive"],
  ["Clc1cccc(Nc2ncnc3ccc(-c4cncc(-n5cnnn5)c4)cc23)c1", "ACHN renal", "inactive"],
  ["COC1=CC(c2ccc[nH]2)=N/C1=C\\c1[nH]c(C)c(C(=O)Oc2ccccc2)c1C", "ACHN renal", "active"],
  ["CSc1nnc(-c2cc3c([nH]c4ccccc43)c(-c3cccc(O)c3)n2)n1-c1ccc(C)cc1", "ACHN renal", "inactive"],
  ["CCN1C(=S)N(CC)C2C1NC(=S)N2/N=C/C=C/c1ccccc1 (stereo not drawn)", "ACHN renal", "inactive"],
  ["COc1ccc2nc3cc(Cl)ccc3c(NCCCNCCC(C)O)c2c1 (stereo not drawn)", "ACHN renal", "active"],
  ["CCCNNC(=O)/C=C/c1ccc(CNCCc2c(C)[nH]c3ccccc23)cc1", "ACHN renal", "active"],
  ["O=C1C(N2CCOCC2)=C(I)C(=O)c2ncccc21", "ACHN renal", "inactive"],
  ["CCCCCCCC/C=C\\CCCCCCCCOc1ccccc1CC(=O)NCC[N+]1(C)CCOCC1", "ACHN renal", "inactive"],
  ["COc1cc2c(cc1OCCCOC1=C=C=C(c3ccc4c(c3)c3cc(-c5ccc(OCCCOc6cc7c(cc6OC)C(=O)N6CCC[C@H]6C=N7)cc5)ccc3n4S(=O)(=O)c3ccc(C)cc3)C=C1)N=C[C@@H]1CCCN1C2=O", "ACHN renal", "active"],
  ["CCCCCC#CC1OC23CCCCC2C(C#N)(C(=N)O3)C1(C#N)C#N (stereo not drawn)", "ACHN renal", "inactive"],
  ["Cc1ccc(S(=O)(=O)Nc2cc(Sc3ccccc3)c(O)c3ccccc23)cc1", "ACHN renal", "inactive"],
  ["O=C1/C(=C/c2cn(-c3ccccc3)nc2-c2ccccc2)SC(=S)N1c1ccc(Cl)cc1", "ACHN renal", "inactive"],
  ["O=C(CCN1CCOCC1)Nc1cccc(-n2cc(-c3ccncc3)c(-c3ccc(Cl)c(O)c3)n2)c1", "ACHN renal", "inactive"],
  ["COc1cc(C=O)ccc1Oc1ccc([N+](=O)[O-])cc1[N+](=O)[O-]", "ACHN renal", "inactive"],
  ["CCCCCCCCCCCCCCCC(=O)O[C@@H]1[C@@H](O)[C@@H](O)C([C@H](NC(=O)[C@@H]2C[C@@H](CCC)CN2C)[C@H](C)Cl)O[C@@H]1SC (stereo partly drawn)", "ACHN renal", "inactive"],
  ["CCN(Cc1ccccc1)c1ccc(/C=C2\\COc3ccccc3C2=O)cc1", "ACHN renal", "inactive"],
  ["c1cc(NCCCCN2CCOCC2)c2ccc3c(ccc4c(NCCN5CCOCC5)ccnc43)c2n1", "ACHN renal", "inactive"],
  ["Cc1cc(N2CCN(CC(=O)Nc3ccc4c(ccn4Cc4ccccc4)c3)CC2)nc(N2CCCCCC2)n1", "ACHN renal", "inactive"],
  ["C=C1C(=O)O[C@H]2[C@H]1CC/C(COC(=O)NCc1ccc(Cn3c(=O)sn(CCCI)c3=O)cc1)=C\\CC[C@@]1(C)O[C@@H]21", "ACHN renal", "inactive"],
  ["COc1ccc(-c2c[nH]c(C(=O)O)c2-c2cc(OC)c(OC)c(OC)c2)cc1", "ACHN renal", "inactive"],
  ["COc1ccc(CCNC(=O)COc2cc3c(Nc4ccc(F)c(Cl)c4)ncnc3cc2OC)cc1OC", "ACHN renal", "inactive"],
  ["Cc1ccc(C(=O)Nc2ccc(CN3CCN(C)CC3)c(C(F)(F)F)c2)cc1C#Cc1cnc(N)cc1C#N", "ACHN renal", "active"],
  ["Cc1cc(N2CCCCC2)nc(NCc2cc(Nc3ccnc4cc(Cl)ccc34)ccc2F)n1", "ACHN renal", "active"],
  ["Cc1ccc(C(=O)c2ccc(CC(=O)N=Nc3c(O)[nH]c4ccc(OC(F)(F)F)cc34)n2C)cc1", "ACHN renal", "inactive"],
  ["CCCCCCCCCCCCC[C@H](O)C[C@H](O)[C@H](C)N", "ACHN renal", "inactive"],
  ["O=C(N=Nc1c(O)[nH]c2ccccc12)Nc1ccc(Br)cc1", "ACHN renal", "inactive"],
  ["c1ccc(Cc2cccc[n+]2C(c2ccccc2)c2ccccc2)cc1", "ACHN renal", "inactive"],
  ["NC(=O)c1c(NC(=O)/C=C/c2cccs2)sc2c1CCC(=O)C2", "ACHN renal", "active"],
  ["COc1cc(OC)cc(-c2ccc(-c3ccc(C(=N)N)cn3)s2)c1", "ACHN renal", "inactive"]
]}
